Reference source for all entries: ChEMBL document CHEMBL3988442

Tested on: Wolbachia pipientis
Assay: Anti-Wolbachia Cell-Based Screen
Format: functional
Parameters: scale not given: in the data most compounds retested in dose-response had high values
Settings: 5 µM
Screen size: about 48,000 compounds; about 13,000 (27%) showed an effect of 50% or more. The list shows a part of the results.
readout-type: Percent Effect (%)

[[record]]
molecule = "O=C(O)C1(Oc2cccc(F)c2)CCN(C2CCOCC2)CC1"
value_measured = 114

[[record]]
molecule = "O=S(=O)(Cc1ccccc1)NC[C@H]1Cn2ccnc2CO1"
value_measured = -7.74

[[record]]
molecule = "Cc1ncsc1CCCn1ccnc1-c1cc2n(n1)CCCNC2"
value_measured = -0.1089

[[record]]
molecule = "CCOc1cccc(CNc2ccccc2C(=O)OC)c1O"
value_measured = 0.1063

[[record]]
molecule = "COCc1noc(CN2CCC3(CC2)[C@H](O)C[C@@H]3OC)n1"
value_measured = 101.4

[[record]]
molecule = "Cc1cc(C)n(NC(=O)c2cccc3c2OCC3)c(=O)c1"
value_measured = -19.93

[[record]]
molecule = "Cc1ccc(C(=O)N2CCN(c3ncnc4nc(N)ccc34)CC2)o1"
value_measured = -4.077

[[record]]
molecule = "CC1(C)CN(C(=O)c2ccc3nncn3c2)CCS1"
value_measured = -32.23

[[record]]
molecule = "Cc1ccc(CNC2(Cc3cc(C(C)(C)O)on3)COC2)o1"
value_measured = -11.3

[[record]]
molecule = "N#Cc1ccc(SCCC(=O)Nc2ccc(CC(N)=O)cc2)cc1"
value_measured = -23.76

[[record]]
molecule = "N#CCCNC(=O)CSc1ccc(F)cc1F"
value_measured = -9.893

[[record]]
molecule = "CCOCC1CN(S(=O)(=O)c2ccccc2)Cc2nccn2C1 (stereo not drawn)"
value_measured = 89.2

[[record]]
molecule = "Cc1cc(C(=O)N2CCCC(N3CCCCCC3)C2)nn1C(C)(C)C (stereo not drawn)"
value_measured = -14.1

[[record]]
molecule = "CCS(=O)(=O)N1Cc2nccn2CC(COc2cccnc2)C1 (stereo not drawn)"
value_measured = -25.66

[[record]]
molecule = "NC(=O)C1Cn2ccnc2C2(CCN(C(=O)NC3CCCC3)CC2)O1.O=C(O)C(F)(F)F (stereo not drawn)"
value_measured = 99.21

[[record]]
molecule = "CNC(=O)C1CCN(c2cc(C3CCNCC3)nc(C)n2)C1 (stereo not drawn)"
value_measured = 9.34

[[record]]
molecule = "Cc1nc(CCC(=O)NC2CCC2)cc(C2CCCNC2)n1 (stereo not drawn)"
value_measured = 108.9

[[record]]
molecule = "CN(Cc1csc(-c2ccccc2)n1)Cc1ncccc1C(=O)O"
value_measured = 4.154

[[record]]
molecule = "COc1ccc(OCc2nc(C(=O)N3CCCNC(=O)C3)co2)cc1"
value_measured = -7.469

[[record]]
molecule = "O=C(O)C1(Oc2cccc(F)c2)CCN(c2ccncc2)CC1"
value_measured = -29.88

[[record]]
molecule = "Cc1ccc2c(c1)C(NCc1ncnn1C)CC2 (stereo not drawn)"
value_measured = -32.91

[[record]]
molecule = "CCC(=O)Nc1cc(Br)cnc1OCC(F)(F)F"
value_measured = -13.83

[[record]]
molecule = "CC(O)Cc1cn(CC2CCN(c3nccc4occc34)CC2)nn1 (stereo not drawn)"
value_measured = 2.668

[[record]]
molecule = "COc1cc(CN2CCC3(CC2)[C@H](O)C[C@@H]3OCCO)ccc1F"
value_measured = 8.427

[[record]]
molecule = "COCc1ncn2c1CN(S(=O)(=O)c1cccc(F)c1)CC2"
value_measured = -3.986

[[record]]
molecule = "COc1ccc(CN(Cc2cncn2C)CC2CCCO2)c(OC)c1.O=C(O)CC(O)(CC(=O)O)C(=O)O (stereo not drawn)"
value_measured = -9.808

[[record]]
molecule = "Cc1cc(CNC(=O)C2CCCN2C(=O)OC(C)(C)C)no1 (stereo not drawn)"
value_measured = -19.91

[[record]]
molecule = "O=C(O)C1(Oc2ccccc2)CCN(c2ccncc2)CC1"
value_measured = -10.06

[[record]]
molecule = "O=C(NS(=O)(=O)c1ccccc1)c1ccccc1F"
value_measured = -14.83

[[record]]
molecule = "Cc1cc(C)n(NC(=O)c2ccccc2C)c(=O)c1"
value_measured = 92.68

[[record]]
molecule = "COc1ccc(F)c(F)c1CN1CCC2(CC1)[C@H](O)C[C@@H]2OCCN"
value_measured = 1.725

[[record]]
molecule = "O=C(Nc1ccc(F)cc1)C1CNCCN1C(=O)CC1CCCCC1 (stereo not drawn)"
value_measured = -14.62

[[record]]
molecule = "CC(C)(O)CN1CCN(C(=O)COCC(F)(F)F)CC1"
value_measured = 2.26

[[record]]
molecule = "CC1(Cc2cccnc2)NCCc2[nH]cnc21 (stereo not drawn)"
value_measured = 0.4171

[[record]]
molecule = "Cc1nnc2n1CCN(c1nc3ccccc3o1)C2"
value_measured = 7.974

[[record]]
molecule = "COCc1noc(CN2C(=O)OC[C@@H]2C(C)C)n1"
value_measured = -2.73

[[record]]
molecule = "CCOCC1CN(S(=O)(=O)c2cccc(C)c2)Cc2nccn2C1 (stereo not drawn)"
value_measured = 102.9

[[record]]
molecule = "NCCO[C@H]1C[C@@H](O)C12CCN(Cc1c(F)cccc1F)CC2"
value_measured = -12.61

[[record]]
molecule = "Cc1cc(C)n(NC(=O)c2ccccc2F)c(=O)c1"
value_measured = 67.62

[[record]]
molecule = "COCC1CN(S(=O)(=O)c2cccc(F)c2)Cc2nccn2C1 (stereo not drawn)"
value_measured = 114.5

[[record]]
molecule = "CC(=O)N[C@@H]1CN(C2CCN(c3cccc(C)c3C)CC2)C[C@H]1C(C)C"
value_measured = -7.453

[[record]]
molecule = "CCOCc1ncn2c1CN(S(=O)(=O)c1cccc(C)c1)CC2"
value_measured = -2.947

[[record]]
molecule = "CC1CN(C)CCN1Cc1cccc(C(=O)NCc2ccco2)c1 (stereo not drawn)"
value_measured = 11.16

[[record]]
molecule = "Cc1nccc(N[C@H]2CN(CCC(=O)NC3CCCC3)C[C@@H]2C2CC2)n1"
value_measured = -19.22

[[record]]
molecule = "Cc1ccc(-c2nc(CN(Cc3ccco3)C3CCS(=O)(=O)C3)cs2)o1 (stereo not drawn)"
value_measured = 9.055

[[record]]
molecule = "N#Cc1cc(NC(=O)C2CC=CC2)ccc1N1CCC(O)CC1"
value_measured = -4.254

[[record]]
molecule = "CNC(=O)CCc1cc(C2CCNCC2)nc(C)n1.Cl.Cl"
value_measured = 115.3

[[record]]
molecule = "Cc1nc(C2CCNCC2)cc(N2CCCC(C(=O)NCCCO)C2)n1 (stereo not drawn)"
value_measured = 12.53

